System: CSNK2A1
Conditions: concentration: 1 μM, replicates: in singlicate; n = 1;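 note: KINOMEscan kinase panel screen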
Readout Label: %Inh (%)
Number only, in %; omit the unit.

INSERT INTO results (compound, target_under_test, value_reported) VALUES
  ('COc1cc(Nc2ccnc3ccc(C(F)(F)F)cc23)cc(OC)c1OC [GW577382]', 'CSNK2A1', 10),
  ('COc1cc2ncn(-c3cc(OCc4ccncc4Br)c(C(N)=O)s3)c2cc1OC [GW854278]', 'CSNK2A1', 0);

Input: Fill in: %Inh of CCC(=O)c1c(-c2ccccc2)c2cc(Cl)ccc2c(=O)n1Cc1cc(C(=O)NC2CC2)n(C)n1 is ___
Output: 0

Input: What value of %Inh has been reported for the following compound? CCn1c(-c2ccoc2)nc2cnccc21 [SB-733887]
Output: 0

Input: Form field: reported %Inh of CCS(=O)c1ccc(-c2coc3ccc(-c4nnc(C)o4)cc23)cc1 (stereo not shown)
Output: 21

Input: Quick check: %Inh of COc1ccc(-n2cnc3c(N)ncnc32)cc1 [SKF-97236] ?
Output: 12

Input: Which measured %Inh value corresponds to CN1C(=O)C(Nc2ccccc2)=C(c2ccccc2)C1=O [SB-300079] ?
Output: 0

Input: Form field: reported %Inh of CCCNC(=O)Nc1ccc(Oc2ncnc3ccn(C)c23)cc1
Output: 0

Input: Which value of %Inh has been reported for COc1cc2ncn(-c3cc(OCc4ccncc4)c(C(N)=O)s3)c2cc1OC [GSK336313] in the records?
Output: 2

Input: I have this compound here, COc1ccc(Nc2nccc(N3CCC(NS(=O)(=O)c4ccc(NC(C)=O)cc4)C3)n2)cc1 (stereo not shown) [GSK1379729] , and I need its recorded %Inh.
Output: 15

====

Test system: CIT
Details: concentration: 1 μM, replicates: in singlicate; n = 1
Readout Label: %Inh
Units required after the number.

INSERT INTO measurements (compound, readout_label, value_reported) VALUES
  ('Cc1c(Cn2c(C)nn3c(=O)cc(N4CCO[C@H](C)C4)nc23)cccc1C(F)(F)F', '%Inh', '1%'),
  ('CCc1nc(-c2cccc(C)c2)c(-c2ccncc2)s1', '%Inh', '72%'),
  ('Cn1c(=O)c(F)c(Nc2ccc(I)cc2F)c2c(=O)n(OC[C@H](O)CO)cnc21', '%Inh', '17%'),
  ('COc1cc2ncn(-c3cc(OCc4ccncc4)c(C(N)=O)s3)c2cc1OC', '%Inh', '10%');

Proceeding to the next compound to report its %Inh.
Input: Give recorded %Inh with CIT for the following compound: Cc1nnc(-c2ccc3ncn(-c4ccc(S(C)=O)cc4)c3c2)o1 (centres unmarked)
Output: 35%

====

Measured %Inh values are reported for all entries that follow.
Test system: YANK2
Construct: gene STK32B
Details: concentration: 1 μM, replicates: in singlicate; n = 1
Show the value, then the unit it is measured in.

Input: So what does the record say about %Inh for CCS(=O)c1ccc(-c2coc3ccc(-c4nnc(C)o4)cc23)cc1 (stereo not drawn) ?
Output: 11%

Input: What measured %Inh goes with COc1cc2ncn(-c3cc(OCc4ccc(S(C)(=O)=O)cc4)c(C(N)=O)s3)c2cc1OC ?
Output: 0%

Input: Dear colleague, I am looking for the recorded %Inh of the following compound: COc1ccc(CNC(=O)NC2CCN(c3ccnc(Nc4ccc(F)cc4)n3)C2)cc1 (stereo not drawn)
Output: 0%

====

System: PAK6
Conditions: concentration: 1 μM, replicates: in singlicate; n = 1
Readout Label: %Inh (%)
Record the value in %, omitting the unit from your answer.

Please review the entries below; each comes with its answer.
INSERT INTO assay_data (molecule, readout_unit, value_reported) VALUES
  ('COc1cccc(C2=C(N(C)c3ccccc3)C(=O)NC2=O)c1 [SB-334865]', '%', 0),
  ('COc1cc2ncn(-c3cc(OCCCc4ccccc4)c(C(N)=O)s3)c2cc1OC [GSK205189]', '%', 0),
  ('CCC(=O)c1c(-c2ccccc2)c2cc(Cl)ccc2c(=O)n1Cc1cc(S(C)(=O)=O)n(CC(F)F)n1', '%', 0),
  ('CCC(=O)c1c(-c2ccccc2)c2cc(Cl)ccc2c(=O)n1Cc1cc(S(C)(=O)=O)n(CC(N)=O)n1', '%', 1),
  ('COc1ccc(-c2coc3ccc(-c4nnc(SCc5cccc(C#N)c5)o4)cc23)cc1', '%', 19);

Input: What does the record list as %Inh for CCC(=O)c1c(-c2ccccc2)c2cc(Cl)ccc2c(=O)n1Cc1ccc(C(=O)O)cc1 ?
Output: 0

Input: // returns reported %Inh for input Cc1cc(Nc2nc(-c3cccc(C)n3)nc3ccccc23)ccn1 [GW872411]
Output: 0

Input: # lookup: %Inh of Cl.c1ccc(Cn2cnc3cc(Nc4ncnc5ccccc45)ccc32)cc1 [GW272142]
Output: 58

Input: Sample Cc1nn2c(=O)cc(N3CCOCC3)nc2n1Cc1cccc(Cl)c1Cl [GSK2342769] — what was its %Inh?
Output: 0

Input: %Inh for COc1ccc(-c2cc3c(C)nc(N)nc3n([C@H]3CC[C@H](OCCO)CC3)c2=O)cn1 ?
Output: 0

Input: For the molecule Cc1ccccc1COc1cc(-n2cnc3cc(Cl)ccc32)sc1C(N)=O [GW813349] , what %Inh is on record?
Output: 1

Input: Give the measured %Inh of O=C(Nc1n[nH]c2nc(-c3ccccc3)c(Cl)cc12)C1CC1 [SB-734909] .
Output: 0

====

This section presents compounds with their documented %Inh values.
Tested on: NIK
Construct: gene MAP3K14
Conditions: concentration: 1 μM, replicates: in singlicate; n = 1
Express the result in % but write the number alone.

Study these solved cases before continuing.
INSERT INTO results (compound, readout_unit, value_reported) VALUES
  ('OCCCNc1nccc(-c2c(-c3cccc(C(F)(F)F)c3)nn3cc(C(F)(F)F)ccc23)n1 [GW630813]', '%', 0),
  ('COC(=O)c1c(-c2ccccc2)c2cc(Br)ccc2c(=O)n1Cc1ccc(NC(=O)CCC(=O)O)cc1', '%', 0),
  ('C[C@@H]1CC[C@H](C(=O)NC2CCCCC2)CN1c1cc(-c2ccc3c(N)n[nH]c3c2)nc(N)n1 [GSK2291363]', '%', 32),
  ('COc1ccc(CNC(=O)NC2CCN(c3ccnc(Nc4ccc(F)cc4)n3)C2)cc1 (centres unmarked) [GSK1379706]', '%', 26),
  ('Nc1n[nH]c2ncc(-c3ccccc3)cc12 [SB-517081]', '%', 0),
  ('COC(=O)c1c(-c2ccccc2)c2cc(Br)ccc2c(=O)n1Cc1ccc(S(C)(=O)=O)cc1', '%', 0),
  ('Cc1cccc(-c2cc(-c3c[nH]nc3-c3ccccn3)ccn2)c1 [GW679395]', '%', 19),
  ('Cc1nnc(-c2ccc(C)c(-c3ccc(C(=O)O)cc3)c2)o1 [GW608005]', '%', 26);

Input: I have this compound here, Cl.c1ccc(Cn2cnc3cc(Nc4ncnc5ccccc45)ccc32)cc1 [GW272142] , and I need its recorded %Inh.
Output: 14

Input: Name the recorded %Inh for Fc1cccc(CSc2nnc(-c3ccc4c(c3)CCO4)o2)c1 .
Output: 0

Input: Item under review: Cc1cc(Nc2nc(-c3cccc(C)n3)nc3ccccc23)ccn1 [GW872411] . Reported %Inh?
Output: 16

====

Tested on: RIOK1
Details: concentration: 1 μM, replicates: in singlicate; n = 1
%Inh below 10% gives false; %Inh at or above it gives true.

Sample answers from the record:
INSERT INTO assay_data (compound, classification) VALUES
  ('Cn1c(=O)c(F)c(Nc2ccc(I)cc2F)c2c(=O)n(OC[C@H](O)CO)cnc21', 'false'),
  ('Cc1nc(N(C)[C@H]2CN(C(=O)CC#N)CC[C@H]2C)c2cc[nH]c2n1', 'false');

Input: Assess whether reported %Inh for CCn1c(-c2ccoc2)nc2cnccc21 [SB-733887] sits at 10% or higher.
Output: true

Input: Exam item: decide whether the reported %Inh for OCCCNc1nccc(-c2c(-c3cccc(C(F)(F)F)c3)nn3cc(C(F)(F)F)ccc23)n1 [GW630813] is at least 10%.
Output: true

Input: Decide: is the reported value of %Inh for CCn1c(-c2nonc2N)nc2ccccc21 [SB-693162/GW549034] equal to or greater than 10%?
Output: false

Input: Quick check: does COc1cccc(C2=C(Nc3cccc(C(=O)O)c3)C(=O)NC2=O)c1 [SB-390770] have %Inh greater than or equal to 10%?
Output: true

Input: Does CCc1nc(-c2cccc(C)c2)c(-c2ccncc2)s1 have a reported %Inh of at least 10%?
Output: true

Data origin: paper PMC5540273
